Sourced from patent US20190241669A1

Target: Human BCMA (human) (UniProt Q02223)
Assay: SPR, IgG on chip, huBCMA analyte
MEASUREMENT TYPE: Kd (nM)
Number in nM, nothing else.

C01_Rd4_6nM_C10 (antibody, V domains shown, IgG) VH: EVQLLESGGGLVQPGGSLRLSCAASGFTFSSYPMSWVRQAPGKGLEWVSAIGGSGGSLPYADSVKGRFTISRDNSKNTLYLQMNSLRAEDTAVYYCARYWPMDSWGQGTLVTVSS VL: EIVLTQSPGTLSLSPGERATLSCRASQSVSSVYLAWYQQKPGQAPRLLIYDASSRAPGIPDRFSGSGSGTDFTLTISRLEPEDFAVYYCQQYSTWPLTFGQGTKVEIK | 0.162

Now look at this entry.
Name the reported Kd value associated with the binder COMBO_Rd4_0.6nM_C02 (antibody, V domains shown, IgG) VH: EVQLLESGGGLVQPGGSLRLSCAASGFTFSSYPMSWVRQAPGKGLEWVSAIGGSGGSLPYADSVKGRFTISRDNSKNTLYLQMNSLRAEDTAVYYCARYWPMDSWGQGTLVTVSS VL: EIVLTQSPGTLSLSPGERATLSCRASIAVSSTYLAWYQQKPGQAPRLLMYDASIRATGIPDRFSGSGSGTDFTLTISRLEPEDFAVYYCQQYMVWPLTFGQGTKVEIK
0.022
